target: Recombinant human his-tagged IGF R extracellular domain protein (human) (UniProt P08069); assay: SPR, Ab captured via anti-huIgG Fc, dissociation at pH 6
kon class ranges: bin 1 = under 80000 M⁻¹ s⁻¹, bin 2 = from 80000 M⁻¹ s⁻¹ up to 90000 M⁻¹ s⁻¹, bin 3 = 90000 M⁻¹ s⁻¹ and over

Example cases with answers are listed next.
• VRDN-02023 (antibody, V domains shown) VH: QVQLQESGPGLVKPSETLSLTCTVSGYSITGGYLWNWIRQPPGKGLEWIGYISYDGTNNYKPSLKDRVTISRDTSKNQFSLKLSSVTAADTAVYYCARYGHVFFDYWGQGTLVTVSS VL: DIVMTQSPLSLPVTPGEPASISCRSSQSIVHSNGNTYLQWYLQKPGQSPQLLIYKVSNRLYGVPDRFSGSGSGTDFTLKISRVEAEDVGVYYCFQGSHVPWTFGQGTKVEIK = bin 1
• VRDN-02052 (antibody, V domains shown) VH: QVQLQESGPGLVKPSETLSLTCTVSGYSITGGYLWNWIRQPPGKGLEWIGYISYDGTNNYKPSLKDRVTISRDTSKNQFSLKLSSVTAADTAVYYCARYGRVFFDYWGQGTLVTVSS VL: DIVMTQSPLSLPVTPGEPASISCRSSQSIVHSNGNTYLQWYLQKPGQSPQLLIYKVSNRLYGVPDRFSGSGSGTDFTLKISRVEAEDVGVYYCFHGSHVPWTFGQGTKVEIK = bin 3
• VRDN-02011 (antibody, V domains shown) VH: QVQLQESGPGLVKPSETLSLTCTVSGYSITGGYLWHWIRQPPGKGLEWIGYISYDGTNNYKPSLKDRVTISRDTSKNQFSLKLSSVTAADTAVYYCARYGRVFFDYWGQGTLVTVSS VL: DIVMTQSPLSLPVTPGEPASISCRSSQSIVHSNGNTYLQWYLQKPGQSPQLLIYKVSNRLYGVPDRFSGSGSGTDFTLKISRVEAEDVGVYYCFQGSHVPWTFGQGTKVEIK = bin 3
• VRDN-02004 (antibody, V domains shown) VH: QVQLQESGPGLVKPSETLSLTCTVSGYSHTGGYLWNWIRQPPGKGLEWIGYISYDGTNNYKPSLKDRVTISRDTSKNQFSLKLSSVTAADTAVYYCARYGRVFFDYWGQGTLVTVSS VL: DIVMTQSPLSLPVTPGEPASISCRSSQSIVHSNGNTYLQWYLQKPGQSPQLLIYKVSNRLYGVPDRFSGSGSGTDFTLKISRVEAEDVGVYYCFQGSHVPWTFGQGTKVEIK = bin 3
• VRDN-02002 (antibody, V domains shown) VH: QVQLQESGPGLVKPSETLSLTCTVSGHSITGGYLWNWIRQPPGKGLEWIGYISYDGTNNYKPSLKDRVTISRDTSKNQFSLKLSSVTAADTAVYYCARYGRVFFDYWGQGTLVTVSS VL: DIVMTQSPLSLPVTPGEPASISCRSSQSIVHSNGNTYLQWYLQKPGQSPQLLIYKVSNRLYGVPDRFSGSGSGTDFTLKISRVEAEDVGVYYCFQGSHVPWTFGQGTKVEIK = bin 2
• VRDN-02053 (antibody, V domains shown) VH: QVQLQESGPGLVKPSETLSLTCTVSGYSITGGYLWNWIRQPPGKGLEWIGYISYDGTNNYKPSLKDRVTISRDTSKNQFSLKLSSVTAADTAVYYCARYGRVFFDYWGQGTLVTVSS VL: DIVMTQSPLSLPVTPGEPASISCRSSQSIVHSNGNTYLQWYLQKPGQSPQLLIYKVSNRLYGVPDRFSGSGSGTDFTLKISRVEAEDVGVYYCFQHSHVPWTFGQGTKVEIK = bin 1

Bin this entry: VRDN-02044 (antibody, V domains shown) VH: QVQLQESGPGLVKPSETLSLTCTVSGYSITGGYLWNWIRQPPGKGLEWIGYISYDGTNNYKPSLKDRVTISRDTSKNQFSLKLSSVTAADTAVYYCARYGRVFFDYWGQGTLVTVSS VL: DIVMTQSPLSLPVTPGEPASISCRSSQSIVHSNGNTYLQWYLQKPGQSPQLLIYHVSNRLYGVPDRFSGSGSGTDFTLKISRVEAEDVGVYYCFQGSHVPWTFGQGTKVEIK
bin 2
